# Tested System: IRAK4 (Homo sapiens (Human), UniProt Q9NWZ3)
# Sequence (Q9NWZ3 whole entry): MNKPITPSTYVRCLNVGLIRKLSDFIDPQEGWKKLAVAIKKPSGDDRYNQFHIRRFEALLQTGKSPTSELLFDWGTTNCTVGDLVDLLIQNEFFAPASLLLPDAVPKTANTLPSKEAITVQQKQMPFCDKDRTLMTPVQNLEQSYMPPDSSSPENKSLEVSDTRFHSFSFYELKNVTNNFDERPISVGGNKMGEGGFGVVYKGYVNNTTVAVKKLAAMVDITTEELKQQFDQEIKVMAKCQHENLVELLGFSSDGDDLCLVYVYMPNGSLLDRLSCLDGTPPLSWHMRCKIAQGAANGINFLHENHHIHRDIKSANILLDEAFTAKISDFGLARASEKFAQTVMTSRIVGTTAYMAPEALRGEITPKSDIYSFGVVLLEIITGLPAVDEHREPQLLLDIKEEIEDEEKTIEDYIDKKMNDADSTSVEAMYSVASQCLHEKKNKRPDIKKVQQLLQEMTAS
# Method Notes: IRAK4 MSD degradation in OCI-LY10
# Type: cell-based
# Assay Setup: OCI-LY10, 24 hrs, MSD; read-out: IRAK4 MSD degradation in OCI-LY10 at 24 hrs: Average external-Abs DC50
Property: DC50

Compound: CN(CCCOCCCc1cccc2c1n(C)c(=O)n2C1CCC(=O)NC1=O)C[C@H]1CC[C@H](n2cc(NC(=O)c3cccc(C(F)(F)F)n3)c(C(F)F)n2)CC1 (some centres unmarked)
Meas Value: > 1000 nM

Compound: O=C1CCC(N2C(=O)c3cccc(NCC4CC5(CCN(C[C@H]6CC[C@H](n7cc(NC(=O)c8cnn9ccc(N%10C[C@H]%11C[C@@H]%10CO%11)nc89)c(C(F)F)n7)CC6)CC5)C4)c3C2=O)C(=O)N1 (some centres unmarked)
Meas Value: 10 to 100 nM

Compound: CN(CCCOCCCNc1cccc2c1C(=O)N(C1CCC(=O)NC1=O)C2=O)C[C@H]1CC[C@H](n2cc(NC(=O)c3coc(-c4ccnc(N[C@@H]5CCCC[C@@H]5O)c4)n3)c(C(F)F)n2)CC1 (some centres unmarked)
Meas Value: < 10 nM

Compound: Cc1nc2cccc(OCCCOC3CCN(C[C@H]4CC[C@H](n5cc(NC(=O)c6cnn7ccc(N8CCOCC8)nc67)c(C(F)F)n5)CC4)CC3)c2c(=O)n1C1CCC(=O)NC1=O (some centres unmarked)
Meas Value: > 1000 nM

Compound: CN(CCC1CCN(C(=O)c2ccc(CNCc3ccc(-c4ccc5c(cnn5CC5CC5)c4)cc3)cc2)CC1)C[C@H]1CC[C@H](n2cc(NC(=O)c3coc(-c4ccnc(NCC5CC5)c4)n3)c(C(F)F)n2)CC1
Meas Value: > 1000 nM

###

# Tested System: UniProt Q9NWZ3
# Method Notes: IRAK4 MSD degradation in OCI-LY10
# Type: cell-based
# Assay Setup: OCI-LY10, 4 hrs, MSD; read-out: IRAK4 MSD degradation in OCI-LY10 at 4 hrs: Average external-Abs DC50
# Protocol: Degradation of IRAK4 in OCI-LY10 was quantitatively measured using Meso Scale Discovery technology. […] Compounds were then added to the assay plates with a final top concentration of 1 to 10 μM in a 1:3 dilution series with total of 8 doses. […] The assay plates were then incubated at room temperature for 1 hour, washed 3 times with 150 μL/well TB ST buffer, and 150 μL/well MSD reading buffer (Meso Scale Discovery catalog number R92TC-2) was added. […]
Property: DC50

Molecule: CN(CCC#CCN)C[C@H]1CC[C@H](n2cc(NC(=O)c3cnn4ccc(N5CCOCC5)nc34)c(C(F)F)n2)CC1
Property: DC50
Meas Value: > 1000 nM
//
Molecule: CN(CCCOCCCc1cccc2c1n(C)c(=O)n2[C@@H]1CCC(=O)NC1=O)C[C@H]1CC[C@H](n2cc(NC(=O)c3coc(-c4ccnc(NCC5CC5)c4)n3)c(C(F)F)n2)CC1 (single isomer, unassigned)
Property: DC50
Meas Value: 10 to 100 nM
//
Molecule: Cn1c(=O)n(C2CCC(=O)NC2=O)c2cccc(-c3cccc(CCCOCc4ccc(-n5cc(NC(=O)c6cnn7ccc(N8CCOCC8)nc67)c(C(F)F)n5)cc4)c3)c21 (stereo not drawn)
Property: DC50
Meas Value: > 1000 nM

###

# Tested System: IRAK4 (Homo sapiens (Human), UniProt Q9NWZ3)
# Method Notes: IRAK4 MSD degradation in OCI-LY10
# Format: cell-based
# Assay Setup: OCI-LY10, 4 hrs, MSD; read-out: IRAK4 MSD degradation in OCI-LY10 at 4 hrs: Average external-Abs DC50
# Procedure: Degradation of IRAK4 in OCI-LY10 was quantitatively measured using Meso Scale Discovery technology. […] Compounds were then added to the assay plates with a final top concentration of 1 to 10 μM in a 1:3 dilution series with total of 8 doses. […] The assay plates were then incubated at room temperature for 1 hour, washed 3 times with 150 μL/well TB ST buffer, and 150 μL/well MSD reading buffer (Meso Scale Discovery catalog number R92TC-2) was added. […]
Property: DC50

Molecule: CC[C@H]1C(COc2ncc(C#C[C@H]3CC[C@H](CN4CCC(OCCCc5cccc6c5c5cccnc5n6C5CCC(=O)NC5=O)CC4)CC3)c3cc(C(N)=O)c(OC)cc23)NC(=O)[C@H]1F (some centres unmarked)
Tested System: IRAK4 (Homo sapiens (Human), UniProt Q9NWZ3)
Property: DC50
Meas Value: 100 to 1000 nM

Molecule: Cn1c(=O)n(C2CCC(=O)NC2=O)c2ccc(CCCOCCOCC(F)CNC(=O)c3cnc(Nc4ccc5cnccc5n4)cc3NC3CC3)cc21 (centres unmarked)
Tested System: IRAK4 (Homo sapiens (Human), UniProt Q9NWZ3)
Property: DC50
Meas Value: > 1000 nM

Molecule: Cn1c(=O)n(C2CCC(=O)NC2=O)c2cccc(CCC(=O)N3CCC4(CC3)CN(C[C@H]3CC[C@H](n5cc(NC(=O)c6cnn7ccc(N8C[C@H]9C[C@@H]8CO9)nc67)c(C(F)F)n5)CC3)C4)c21 (some centres unmarked)
Tested System: IRAK4 (Homo sapiens (Human), UniProt Q9NWZ3)
Property: DC50
Meas Value: < 10 nM

Molecule: O=C1CCC(N2Cc3c(NCC4CCN(C[C@H]5CC[C@H](C6N=C(NC(=O)c7cnn8ccc(N9C[C@H]%10C[C@@H]9CO%10)nc78)C(C(F)F)=N6)CC5)CC4)cccc3C2=O)C(=O)N1 (some centres unmarked)
Tested System: IRAK4 (Homo sapiens (Human), UniProt Q9NWZ3)
Property: DC50
Meas Value: 100 to 1000 nM

Molecule: O=C1CCC(n2c3ccccc3c3c(CCCOC4CCN(C[C@H]5CC[C@H](n6cc(NC(=O)c7cnn8ccc(N9CCOCC9)nc78)c(C(F)F)n6)CC5)CC4)ccnc32)C(=O)N1 (some centres unmarked)
Tested System: IRAK4 (Homo sapiens (Human), UniProt Q9NWZ3)
Property: DC50
Meas Value: 10 to 100 nM

###

# Tested System: IRAK4 (Homo sapiens (Human))
# Method Notes: IRAK4 MSD degradation in OCI-LY10
# Format: cell-based
# Assay Setup: OCI-LY10, 4 hrs, MSD; read-out: IRAK4 MSD degradation in OCI-LY10 at 4 hrs: Average external-Abs DC50
Attribute: DC50
Property: DC50

Compound: Cn1c(=O)n(C2CCC(=O)NC2=O)c2cccc(CN3CCC(CCN4CCC(n5cc(NC(=O)c6coc(-c7ccnc(NCC8CC8)c7)n6)c(C(F)F)n5)CC4)CC3)c21 (centres unmarked)
Property: DC50
Meas Value: < 10 nM
//
Compound: Cn1c(=O)n(C2CCC(=O)NC2=O)c2cccc(CCCOCCCCCN3CCC(n4cc(NC(=O)c5coc(-c6ccnc(NCC7CC7)c6)n5)c(C(F)F)n4)CC3)c21 (centres unmarked)
Property: DC50
Meas Value: < 10 nM
//
Compound: O=C1CCC(n2c3ccccc3c3c(CCCOCCOCCNC[C@H]4CC[C@H](n5cc(NC(=O)c6coc(-c7ccnc(NCC8CC8)c7)n6)c(C(F)F)n5)CC4)ccnc32)C(=O)N1 (some centres unmarked)
Property: DC50
Meas Value: 10 to 100 nM
//
Compound: CC[C@@H]1CC(=O)N[C@@H]1COc1ncc(C#C[C@H]2CC[C@H](CN(C)CCCOCCCc3cccc4c3n(C)c(=O)n4C3CCC(=O)NC3=O)CC2)c2cc(C(N)=O)c(OC)cc12 (some centres unmarked)
Property: DC50
Meas Value: 10 to 100 nM
//
Compound: Cc1ccc(-n2nc(C3CCN(C(=O)CCCCOCCCc4cccc5c4n(C)c(=O)n5C4CCC(=O)NC4=O)CC3)cc2NC(=O)c2cnn3cccnc23)nc1 (centres unmarked)
Property: DC50
Meas Value: > 1000 nM

###

Attribute: DC50
# Tested System: IRAK4 (Homo sapiens (Human))
# Method Notes: IRAK4 MSD degradation in OCI-LY10
# Assay type: cell-based
# Assay Setup: OCI-LY10, 4 hrs, MSD; read-out: IRAK4 MSD degradation in OCI-LY10 at 4 hrs: Average external-Abs DC50

Molecule: O=C1CCC(N2C[C@@H](c3ccc(C#CCCOC4CCN(C[C@H]5CC[C@H](n6cc(NC(=O)c7cnn8ccc(N9CCC(O)CC9)nc78)c(C(F)F)n6)CC5)CC4)cc3)OC2=O)C(=O)N1 (stereo partly drawn) [I-152]
DC50: 10 to 100 nM
--
Molecule: CN(C[C@H]1CC[C@H](n2cc(NC(=O)c3cnn4ccc(N5C[C@H]6C[C@@H]5CO6)nc34)c(C(F)F)n2)CC1)C1CCC(CNc2cccc3c2C(=O)N(C2CCC(=O)NC2=O)C3=O)CC1 (stereo partly drawn) [I-324]
DC50: 100 to 1000 nM
--
Molecule: Cc1c[nH]c2ncnc(N[C@H]3CC[C@H](N4CCN(C(=O)COCCOCCOCCOCCCc5ccc6c(c5)n(C)c(=O)n6C5CCC(=O)NC5=O)CC4)CC3)c12 (stereo partly drawn) [I-26]
DC50: > 1000 nM

Source of measurements: patent US11352350B2
